molecular target: PAK7 Catalytic Domain (Homo sapiens); construct: For all of them, we expressed and purified the catalytic domain separately; His-tag; made in house; host or cells: Escherichia coli; test: Differential Scanning Fluorimetry (DSF) Tm shift; type: binding; conditions: 2 µM protein, 10 µM inhibitor, average of 3 experiments, each in duplicate
Sequence (Q9P286 449-700 limits assumed): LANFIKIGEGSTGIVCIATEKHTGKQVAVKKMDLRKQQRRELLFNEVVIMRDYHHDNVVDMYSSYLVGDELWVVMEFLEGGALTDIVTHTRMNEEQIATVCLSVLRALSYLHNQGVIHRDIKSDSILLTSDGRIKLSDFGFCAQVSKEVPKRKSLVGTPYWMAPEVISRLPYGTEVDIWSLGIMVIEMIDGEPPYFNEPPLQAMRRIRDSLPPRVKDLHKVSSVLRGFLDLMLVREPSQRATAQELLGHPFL
Kindly supply the reported Melting temperature (Tm) shift values for the records listed here.
Enter the number, and then the unit.

Task item: Report Melting temperature (Tm) shift on PAK7 Catalytic Domain (Homo sapiens) for this entry: Cn1cc(/C=C2\C(=O)Nc3ccc(S(N)(=O)=O)cc32)c2ccccc21
Reply: 0.9 degrees Celcius

Task item: Report Melting temperature (Tm) shift on PAK7 Catalytic Domain (Homo sapiens) for this entry: O=C1NC(=O)C(=Cc2cccc(C(F)(F)F)c2)S1
Reply: 0.1 degrees Celcius

Task item: Report Melting temperature (Tm) shift on PAK7 Catalytic Domain (Homo sapiens) for this entry: N#CCCc1ccc2c(c1)-c1[nH]c3ccc([N+](=O)[O-])cc3c1CC(=O)N2
Reply: 1.3 degrees Celcius

Task item: Report Melting temperature (Tm) shift on PAK7 Catalytic Domain (Homo sapiens) for this entry: NC(=O)Nc1cc(-c2ccccc2)sc1C(N)=O
Reply: 1.3 degrees Celcius

Task item: Report Melting temperature (Tm) shift on PAK7 Catalytic Domain (Homo sapiens) for this entry: CCCCc1c(-c2ccc(O)cc2)[nH]c2nccnc12
Reply: 1.2 degrees Celcius

Task item: Report Melting temperature (Tm) shift on PAK7 Catalytic Domain (Homo sapiens) for this entry: NC(=O)Nc1sc(-c2ccc(F)cc2)cc1C(N)=O
Reply: 1.3 degrees Celcius

Task item: Report Melting temperature (Tm) shift on PAK7 Catalytic Domain (Homo sapiens) for this entry: Cl.Cl.NCCNc1ncc(C(N)=O)c(Nc2cccc(C(F)(F)F)c2)n1
Reply: 5.1 degrees Celcius

Task item: Report Melting temperature (Tm) shift on PAK7 Catalytic Domain (Homo sapiens) for this entry: O=C1NC(=O)/C(=C/c2ccc3nccnc3c2)S1
Reply: 0.0 degrees Celcius

Task item: Report Melting temperature (Tm) shift on PAK7 Catalytic Domain (Homo sapiens) for this entry: CN(C)c1nc2c(Br)c(Br)c(Br)c(Br)c2[nH]1
Reply: 4.1 degrees Celcius

Task item: Report Melting temperature (Tm) shift on PAK7 Catalytic Domain (Homo sapiens) for this entry: O=C1Nc2ccc(Cl)cc2C1=Cc1cc(Cl)c(O)c(Cl)c1 [PKR Inhibitor, Negative Control]
Reply: 0.3 degrees Celcius

Task item: Report Melting temperature (Tm) shift on PAK7 Catalytic Domain (Homo sapiens) for this entry: Nc1ncnc2c1c(I)cn2[C@@H]1O[C@H](CO)[C@@H](O)[C@H]1O
Reply: 0.4 degrees Celcius

Task item: Report Melting temperature (Tm) shift on PAK7 Catalytic Domain (Homo sapiens) for this entry: O=C1Cc2c([nH]c3ccc([N+](=O)[O-])cc23)-c2ccccc2N1
Reply: 0.3 degrees Celcius

Task item: Report Melting temperature (Tm) shift on PAK7 Catalytic Domain (Homo sapiens) for this entry: O=C1C(Cl)=C(N2C(=O)CCC2=O)C(=O)c2ccccc21
Reply: 0.0 degrees Celcius

Task item: Report Melting temperature (Tm) shift on PAK7 Catalytic Domain (Homo sapiens) for this entry: O=C1c2ccccc2-c2n[nH]c3cccc1c23
Reply: 0.7 degrees Celcius

Task item: Report Melting temperature (Tm) shift on PAK7 Catalytic Domain (Homo sapiens) for this entry: CS(=O)(=O)O.Cn1cc(C2=C(c3cn(CCCSC(=N)N)c4ccccc34)C(=O)NC2=O)c2ccccc21
Reply: 0.9 degrees Celcius

Task item: Report Melting temperature (Tm) shift on PAK7 Catalytic Domain (Homo sapiens) for this entry: O=C1Nc2ccc3ncsc3c2/C1=C/c1cnc[nH]1
Reply: 1.9 degrees Celcius

Task item: Report Melting temperature (Tm) shift on PAK7 Catalytic Domain (Homo sapiens) for this entry: N#Cc1c(-c2ccccc2)cc(-c2cc(Br)ccc2O)[nH]c1=O
Reply: 0.0 degrees Celcius

Task item: Report Melting temperature (Tm) shift on PAK7 Catalytic Domain (Homo sapiens) for this entry: CN(C)CCCn1cc(C2=C(c3c[nH]c4ccccc34)C(=O)NC2=O)c2ccccc21 [Bisindolylmaleimide I]
Reply: 0.6 degrees Celcius
